Measured values drawn from patent US12258328B2 for this set.

tested on: EGFR L858R/C797S (Homo sapiens, UniProt P00533, C797S/L858R)
Sequence (P00533 25-1210 C797S/L858R): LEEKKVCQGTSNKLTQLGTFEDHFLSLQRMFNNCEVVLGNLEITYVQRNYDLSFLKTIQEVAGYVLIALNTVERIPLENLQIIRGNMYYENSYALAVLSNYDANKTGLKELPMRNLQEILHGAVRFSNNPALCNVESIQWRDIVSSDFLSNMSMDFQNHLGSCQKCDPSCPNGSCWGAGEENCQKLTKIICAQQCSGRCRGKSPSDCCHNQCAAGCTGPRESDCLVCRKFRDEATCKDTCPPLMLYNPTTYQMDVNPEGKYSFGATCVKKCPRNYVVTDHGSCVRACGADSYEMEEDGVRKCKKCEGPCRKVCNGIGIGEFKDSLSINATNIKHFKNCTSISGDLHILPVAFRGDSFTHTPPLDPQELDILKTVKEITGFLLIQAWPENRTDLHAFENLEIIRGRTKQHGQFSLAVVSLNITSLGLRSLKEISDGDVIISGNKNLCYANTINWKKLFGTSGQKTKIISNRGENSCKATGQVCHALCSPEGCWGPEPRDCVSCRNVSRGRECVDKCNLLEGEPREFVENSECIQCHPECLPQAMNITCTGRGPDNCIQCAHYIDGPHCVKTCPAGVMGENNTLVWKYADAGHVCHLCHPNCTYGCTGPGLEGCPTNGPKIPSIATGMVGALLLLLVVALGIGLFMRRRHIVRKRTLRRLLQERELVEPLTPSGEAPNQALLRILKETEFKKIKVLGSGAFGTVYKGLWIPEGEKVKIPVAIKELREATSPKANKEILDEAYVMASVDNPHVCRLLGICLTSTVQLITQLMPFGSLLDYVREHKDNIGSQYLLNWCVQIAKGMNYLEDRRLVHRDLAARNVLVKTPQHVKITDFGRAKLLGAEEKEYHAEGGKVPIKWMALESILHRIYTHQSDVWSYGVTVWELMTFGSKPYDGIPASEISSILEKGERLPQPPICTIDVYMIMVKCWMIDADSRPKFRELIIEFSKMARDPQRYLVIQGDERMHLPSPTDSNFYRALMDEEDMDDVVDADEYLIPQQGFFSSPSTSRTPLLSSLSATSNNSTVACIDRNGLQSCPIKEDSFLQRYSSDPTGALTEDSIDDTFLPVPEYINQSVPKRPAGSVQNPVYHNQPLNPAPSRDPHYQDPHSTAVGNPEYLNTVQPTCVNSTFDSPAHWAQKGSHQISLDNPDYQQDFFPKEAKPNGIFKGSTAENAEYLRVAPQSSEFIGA
assay method text: Biochemical EGFR kinase assay (Lance Ultra TR-FRET), double mutant L858R/C797S
test conditions: ATP at Km; read-out: IC50 L858R/C797S, Km ATP
pIC50: −log10 of the molar value.
quantity measured: pIC50

CC(C)(O)[C@H]1CC[C@@H](Nc2cc(Nc3ccnc(-c4cnn(S(=O)(=O)C5CC5)c4)n3)ncc2-c2ccc(OCCN3CCC3)cn2)CC1 ... 9.70
CN(C)S(=O)(=O)n1cc(-c2nccc(Nc3cc(NC4CCC(C)(O)CC4)c(-c4ccc(C(C)(O)C(F)(F)F)cn4)cn3)n2)cn1 (stereo not drawn) ... 8.77
CC(F)(F)c1ccc(-c2cnc(Nc3ccnc(-c4cnn(S(=O)(=O)C5CC5)c4)n3)cc2N[C@H]2CC[C@@H](C(C)(C)O)CC2)nc1 ... 7.97

1 = C[C@]1(O)CC[C@@H](Nc2cc(Nc3nc(-c4cnn(S(=O)(=O)C5CC5)c4)ncc3F)ncc2-c2ccc(CC(F)(F)F)cn2)CC1
2 = CC(C)(O)[C@H]1CC[C@@H](Nc2cc(Nc3ccnc(-c4cnn(S(=O)(=O)C5CC5)c4)n3)ncc2-c2cc(NC3CC(F)(F)C3)ccn2)CC1
3 = O=S(=O)(C1CC1)n1cc(-c2nccc(Nc3cc(N[C@H]4CC[C@@H](CO)CC4)c(-c4ccc(OCCO)cn4)cn3)n2)cn1
Task item: # rank_down: sort by pIC50, max first Lab note: record answer as labels in requested order.
Reply: 3, 1, 2
